assay: Stability in dog plasma assessed as drug degradation measured after 44 hrs; format: ADME, cell-free, Canis lupus familiaris; settings: read-out: Drug degradation
Numbered stars: 1 amine (or outer) side, 2 acyl side, 3 side chain; on linkers, the order of the positions; unused ones are H or OH. Bridge positions count the residues as written; N and C are the ends. Square brackets hold non-standard residues; d marks the D form. Peptide text beside a SMILES is read from it. * marks the point of attachment. Orn(4R-OH,5R-OCH2CH2NMe3+) = C[N+](C)(C)CCO[C@@H](N[*:3])[C@H](O)C[C@H](N[*:1])C(=O)[*:2]; pTerphenylCO(4''-OnC5H11) = CCCCCOc1ccc(-c2ccc(-c3ccc(C(=O)*)cc3)cc2)cc1; hTyr(3S-OH,4S-OH) = N[C@H](C(=O)O)[C@H](O)[C@@H](O)c1ccc(O)cc1; Pro(3S-OH,4S-Me) = C[C@H]1CN[C@H](C(=O)O)[C@H]1O; Hyp = O=C(O)[C@@H]1C[C@@H](O)CN1
REPORTED METRIC: metabolised at 44 h

INPUT: Indicate its recorded metabolised at 44 h; the compound in question is CCCCCOc1ccc(-c2ccc(-c3ccc(C(=O)N[C@H]4C[C@@H](O)[C@@H](OCC[N+](C)(C)C)NC(=O)[C@@H]5[C@@H](O)[C@@H](C)CN5C(=O)[C@H]([C@@H](C)O)NC(=O)[C@H]([C@H](O)[C@@H](O)c5ccc(O)cc5)NC(=O)[C@@H]5C[C@@H](O)CN5C(=O)[C@H]([C@@H](C)O)NC4=O)cc3)cc2)cc1 [REZAFUNGIN] ({pTerphenylCO(4''-OnC5H11)}-[Orn(4R-OH,5R-OCH2CH2NMe3+)]T[Hyp][hTyr(3S-OH,4S-OH)]T[Pro(3S-OH,4S-Me)]; lactam 1-C)
OUTPUT: 21%

Numbers sourced from ChEMBL document CHEMBL5244275.
